Exercise: state measured half-life for each of the compounds provided.
# assay explanation: PK of TRH mimetics in rat, cassette dosing i.v. and p.o.
# Type: in vivo
# test settings: male, Sprague-Dawley, plasma, iv, 1 umol/kg
The reply must contain the numeric value and, after it, the unit.

C[C@@H]1OC(=O)N[C@@H]1C(=O)N[C@@H](Cc1cscn1)C(=O)N1CCC[C@H]1C :: 21.6 min
C[C@@H]1OC(=O)N[C@@H]1C(=O)N[C@@H](Cc1cscn1)C(=O)N1CCC[C@H]1C(N)=O :: 13.5 min
C[C@@H]1OC(=O)N[C@@H]1C(=O)N[C@@H](Cc1cscn1)C(=O)N1CCC[C@H]1C#N :: 26.2 min
NC(=O)[C@@H]1CCCN1C(=O)[C@H](Cc1cnc[nH]1)NC(=O)[C@@H]1CCC(=O)N1 [TRH, L-pGlu–L-His–L-Pro-NH2, reference compound] :: 3 min

Lab note: next compound to report on.
Quick check: half-life of C[C@@H]1OC(=O)N[C@@H]1C(=O)N[C@@H](Cc1cscn1)C(=O)N1CSC[C@H]1C(N)=O ? 9.8 min

----------
# assay explanation: PK of TRH and 79 after oral administration to fasted conscious rats
# Type: in vivo, rat
# test settings: male, Wistar, rat, plasma, po, 40 mg/kg
value type: Tmax

C[C@@H]1OC(=O)N[C@@H]1C(=O)N[C@@H](Cc1cscn1)C(=O)N1CCC[C@H]1C :: 15 min

Now consider the entry below.
Value lookup for Tmax; key = NC(=O)[C@@H]1CCCN1C(=O)[C@H](Cc1cnc[nH]1)NC(=O)[C@@H]1CCC(=O)N1 [TRH, L-pGlu–L-His–L-Pro-NH2, reference compound] 45 min

----------
# assay explanation: PK of TRH mimetics in rat, cassette dosing i.v. and p.o.
# Type: in vivo
# test settings: male, Sprague-Dawley, plasma, iv, 1 umol/kg
Everything with clearance lower than 30 mL/min/kg is n; everything else, including exactly 30 mL/min/kg, is y.

# count of solved cases: 3
NC(=O)[C@@H]1CCCN1C(=O)[C@H](Cc1cnc[nH]1)NC(=O)[C@@H]1CCC(=O)N1 [TRH, L-pGlu–L-His–L-Pro-NH2, reference compound] :: y
C[C@@H]1OC(=O)N[C@@H]1C(=O)N[C@@H](Cc1cscn1)C(=O)N1CCC[C@H]1C(N)=O :: n
C[C@@H]1OC(=O)N[C@@H]1C(=O)N[C@@H](Cc1cscn1)C(=O)N1CSC[C@H]1C(N)=O :: n

Does C[C@@H]1OC(=O)N[C@@H]1C(=O)N[C@@H](Cc1cscn1)C(=O)N1CCC[C@H]1C#N have a reported clearance of at least 30 mL/min/kg? n

----------
# assay explanation: PK of TRH and 79 after oral administration to fasted conscious rats
# Assay type: in vivo, rat
# test settings: male, Wistar, rat, plasma, po, 40 mg/kg
So I've got a bunch of compounds here, and I need their AUC(0-t) values.
Give bare numbers, in ng·h/mL.

C[C@@H]1OC(=O)N[C@@H]1C(=O)N[C@@H](Cc1cscn1)C(=O)N1CCC[C@H]1C :: 817

Field request: AUC(0-t) | item: NC(=O)[C@@H]1CCCN1C(=O)[C@H](Cc1cnc[nH]1)NC(=O)[C@@H]1CCC(=O)N1 [TRH, L-pGlu–L-His–L-Pro-NH2, reference compound] 68

----------
# Test system: CYP1A2, CYP2A6, CYP2B6, CYP2C9, CYP2C19, CYP2D6, CYP2E1, CYP3A4/5, CYP4A11
# assay explanation: Direct CYP inhibition, 10 CYP enzymes
# Assay type: in vitro ADME
# test settings: human
value type: inhibition at 300 μM

# query: inhibition at 300 μM | item C[C@@H]1OC(=O)N[C@@H]1C(=O)N[C@@H](Cc1cscn1)C(=O)N1CCC[C@H]1C [Compound 79] | system: CYP1A2, CYP2A6, CYP2B6, CYP2C9, CYP2C19, CYP2D6, CYP2E1, CYP3A4/5, CYP4A11 ≤ 10%

----------
# assay explanation: PK of TRH mimetics in rat, cassette dosing i.v. and p.o.
# Type: in vivo
# test settings: male, Sprague-Dawley, plasma, iv, 1 umol/kg
Answer each item with its documented MRT.
Numbers only, in min.

I need MRT for every entry listed below, if you could help.
1. C[C@@H]1OC(=O)N[C@@H]1C(=O)N[C@@H](Cc1cscn1)C(=O)N1CCC[C@H]1C#N
2. C[C@@H]1OC(=O)N[C@@H]1C(=O)N[C@@H](Cc1cscn1)C(=O)N1CCC[C@H]1C(N)=O
3. NC(=O)[C@@H]1CCCN1C(=O)[C@H](Cc1cnc[nH]1)NC(=O)[C@@H]1CCC(=O)N1 [TRH, L-pGlu–L-His–L-Pro-NH2, reference compound]
4. C[C@@H]1OC(=O)N[C@@H]1C(=O)N[C@@H](Cc1cscn1)C(=O)N1CSC[C@H]1C(N)=O
5. C[C@@H]1OC(=O)N[C@@H]1C(=O)N[C@@H](Cc1cscn1)C(=O)N1CCC[C@H]1C

[14.6, 14.3, 3.7, 11, 19.1]

----------
# Tested on: CYP1A2, CYP2A6, CYP2B6, CYP2C8, CYP2C9, CYP2C19, CYP2D6, CYP2E1, CYP3A4/5, CYP4A11
# assay explanation: Direct CYP inhibition, 10 CYP enzymes
# Assay type: in vitro ADME
# test settings: human
value type: inhibition at 300 μM

Could you share which inhibition at 300 μM value was measured for C[C@@H]1OC(=O)N[C@@H]1C(=O)N[C@@H](Cc1cscn1)C(=O)N1CCC[C@H]1C ? ≤ 50%

----------
# assay explanation: PK of TRH mimetics in rat, cassette dosing i.v. and p.o.
# Type: in vivo
# test settings: male, Sprague-Dawley, plasma, iv, 1 umol/kg
value type: Vd
Please report the result as a number followed by the unit.

Guide cases for Vd, answers given:
C[C@@H]1OC(=O)N[C@@H]1C(=O)N[C@@H](Cc1cscn1)C(=O)N1CSC[C@H]1C(N)=O :: 0.16 L/kg
C[C@@H]1OC(=O)N[C@@H]1C(=O)N[C@@H](Cc1cscn1)C(=O)N1CCC[C@H]1C#N :: 0.25 L/kg
C[C@@H]1OC(=O)N[C@@H]1C(=O)N[C@@H](Cc1cscn1)C(=O)N1CCC[C@H]1C(N)=O :: 0.19 L/kg
NC(=O)[C@@H]1CCCN1C(=O)[C@H](Cc1cnc[nH]1)NC(=O)[C@@H]1CCC(=O)N1 [TRH, L-pGlu–L-His–L-Pro-NH2, reference compound] :: 0.33 L/kg

Next item in the queue.
Please give the measured Vd for this compound: C[C@@H]1OC(=O)N[C@@H]1C(=O)N[C@@H](Cc1cscn1)C(=O)N1CCC[C@H]1C 0.58 L/kg
